Where do these numbers come from? They come from patent US7465743B2.

Molecular target: PDE4B (human recombinant) (Homo sapiens, UniProt Q07343)
Construct: made in house
Sequence (Q07343 1-564 isoform Q07343-2): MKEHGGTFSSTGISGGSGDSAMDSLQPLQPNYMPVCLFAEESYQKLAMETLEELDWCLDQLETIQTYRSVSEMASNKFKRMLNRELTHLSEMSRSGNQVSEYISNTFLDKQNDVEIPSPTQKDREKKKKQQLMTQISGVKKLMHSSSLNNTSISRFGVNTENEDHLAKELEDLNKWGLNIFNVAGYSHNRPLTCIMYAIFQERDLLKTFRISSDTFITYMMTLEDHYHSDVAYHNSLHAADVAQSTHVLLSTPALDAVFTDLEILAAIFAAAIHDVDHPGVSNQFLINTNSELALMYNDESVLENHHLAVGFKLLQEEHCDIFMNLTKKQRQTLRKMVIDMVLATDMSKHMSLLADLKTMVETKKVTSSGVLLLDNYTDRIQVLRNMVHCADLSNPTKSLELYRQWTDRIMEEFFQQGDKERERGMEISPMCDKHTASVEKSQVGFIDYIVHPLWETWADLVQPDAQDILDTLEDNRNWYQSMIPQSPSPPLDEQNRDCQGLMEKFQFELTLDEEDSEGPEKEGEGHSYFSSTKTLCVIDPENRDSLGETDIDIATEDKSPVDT
Experiment: Inhibition of PDE4B activity (radioactive SPA assay or IMAP FP assay)
Format: biochemical
Settings: ratio PDE4B vs PDE5, not log scale; specific Examples
Lab note: compare Selectivity (PDE4B/PDE5 EMR ratio, not log scale) with 200, writing Satisfied if less and Not satisfied if equal or more.

| molecule | category |
| --- | --- |
| CCn1ncc2c(NC(C)(C)C)c(C(=O)NCc3ccccc3)cnc21 | Not satisfied |
| CCn1ncc2c(N[C@H](C)C(C)C)c(C(=O)Nc3ccc(F)cc3)cnc21 | Satisfied |
| CCC(C)Nc1c(C(=O)Nc2ccccc2)cnc2c1cnn2C(C)C (stereo not drawn) [Comparative Example 61, reference compound] | Satisfied |
| CCn1ncc2c(N[C@@H](C)C(C)C)c(C(=O)NCc3ccccc3)cnc21 | Not satisfied |
| CCCCNC(=O)c1cnc2c(cnn2CC)c1NCCCC [reference compound] | Satisfied |
| CCn1ncc2c(N[C@H](C)C(C)C)c(C(=O)NCc3ccccc3)cnc21 | Satisfied |
| CCC(CC)CNC(=O)c1cnc2c(cnn2CC)c1N[C@@H](C)C(C)C | Not satisfied |
